- Experiment description: in vivo;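 note: drug concentration in brain divided by that in blood, measured in Wistar rats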
- Conditions used: Wistar, rat, brain / blood
Outcome: Condition met for Kp of at least 0.5; Condition not met for anything lower.

As a guide, the following entries are already answered.
-- ask // inclusive: Kp at least 0.5? input: CN(C)CCCN1c2ccccc2CCc2ccccc21
-- reply Condition met

-- ask // inclusive: Kp at least 0.5? input: CN(C)CCC=C1c2ccccc2CCc2ccccc21
-- reply Condition met

-- ask // inclusive: Kp at least 0.5? input: CN1Cc2c(-c3noc(C(C)(C)O)n3)ncn2-c2cccc(Cl)c2C1=O
-- reply Condition not met

-- ask // inclusive: Kp at least 0.5? input: Clc1ccc2c(c1)[C@H]1CNC[C@@H]1c1ccccc1O2
-- reply Condition met

---
-- ask // inclusive: Kp at least 0.5? input: Cc1nc2n(c(=O)c1CCN1CCC(c3noc4cc(F)ccc34)CC1)CCCC2O (stereo unspecified)
-- reply Condition not met
